- ASSAY_EXPLANATION: Equilibrium solubility in water
- Format: physicochemical
- SETTINGS: supernatant after 24 hours equilibrium in water, room temperature; hydrochloride
Counter-ions that a name gives are not always drawn.
QUANTITY_MEASURED: pH
# respond with the number and nothing more

Below, each entry is followed by its recorded pH result.
Please give the measured pH for this compound: c1ccc2c(c1)nnn2CCCCN1CCN(c2nsc3ccccc23)CC1 [Crystal form B, hydrochloride] 4.9

Can you share its pH? I mean this compound: c1ccc2c(c1)nnn2CCCCN1CCN(c2nsc3ccccc23)CC1 [Crystal form D, hydrochloride] 4.9

Field request: pH | item: c1ccc2c(c1)nnn2CCCCN1CCN(c2nsc3ccccc23)CC1 [Crystal form C, hydrochloride] 4.9

Others:
Which measured pH value corresponds to c1ccc2c(c1)nnn2CCCCN1CCN(c2nsc3ccccc23)CC1 [Crystal form A, hydrochloride] ? 4.6

Look up pH: c1ccc2c(c1)nnn2CCCCN1CCN(c2nsc3ccccc23)CC1 [Crystal form F, hydrochloride] 4.7

---

- ASSAY_EXPLANATION: Equilibrium solubility in water
- Type: physicochemical
- SETTINGS: XRPD of solid after 24 hours equilibrium in water; hydrochloride
Where a name gives a salt, the structure may show the parent alone.
QUANTITY_MEASURED: Crystal form transformation

Tell me the measured Crystal form transformation of c1ccc2c(c1)nnn2CCCCN1CCN(c2nsc3ccccc23)CC1 [Crystal form B, hydrochloride] , please. No

Field request: Crystal form transformation | item: c1ccc2c(c1)nnn2CCCCN1CCN(c2nsc3ccccc23)CC1 [Crystal form A, hydrochloride] No

---

- ASSAY_EXPLANATION: Equilibrium solubility in water
- Type: physicochemical
- SETTINGS: equilibrium solubility in water, room temperature, 24 hours; hydrochloride
Where a name gives a salt, the structure may show the parent alone.
Each entry below carries its reported Solubility.

Consider the reported Solubility for these compounds:
Requested field: Solubility. Item: c1ccc2c(c1)nnn2CCCCN1CCN(c2nsc3ccccc23)CC1 [Crystal form B, hydrochloride] 3400 µg/mL

Look up Solubility for this compound: c1ccc2c(c1)nnn2CCCCN1CCN(c2nsc3ccccc23)CC1 [Crystal form F, hydrochloride] 2900 µg/mL

Sample c1ccc2c(c1)nnn2CCCCN1CCN(c2nsc3ccccc23)CC1 [Crystal form D, hydrochloride] — what was its Solubility? 3100 µg/mL

Let's switch to this compound now.
Given c1ccc2c(c1)nnn2CCCCN1CCN(c2nsc3ccccc23)CC1 [Crystal form C, hydrochloride] , state its recorded Solubility. 3300 µg/mL
